System: OVCAR-4
assay-remarks: NCI tumour cell line growth inhibition, 48 h
The source made the active and inactive calls. No stated cut-off is given here; in the data, active = GI50 up to about 1.1 µM and inactive = higher.
Overview of reported GI50 across a group of compounds:

compound: C=CCOC1(CC=C)C(=O)OC2C(O)COC21O (stereo not given)
GI50: > 100 µM (inactive)
//
compound: CN1CCc2cc(N)cc3c2C1Cc1ccc2c(c1-3)OCO2 (stereo not given)
GI50: 30 µM (inactive)
//
compound: c1ccc(CC2COC(c3cccs3)=N2)cc1 (stereo not given)
GI50: > 100 µM (inactive)
//
compound: CC(C)CCCC(C)[C@H]1CC[C@H]2n3c(nnc3-c3ccccc3)CCC[C@]12C (stereo not given in full)
GI50: 12.5 µM (inactive)
//
compound: Cc1ccccc1C(=O)Oc1ccc(Oc2ccccc2)cc1
GI50: > 100 µM (inactive)
//
compound: Cc1ccc(CC[PH](=O)CCc2ccc(C)nc2)cn1
GI50: > 100 µM (inactive)
//
compound: CCN1CCCn2c(=O)[nH]c3cc(Br)cc1c32
GI50: > 100 µM (inactive)
//
compound: OC1OC(c2ccc[nH]2)C(F)(F)C(F)(F)C1(F)F (stereo not given)
GI50: 73.1 µM (inactive)
//
compound: O=C(Nc1cccc(C(F)(F)F)c1)O/N=C(/Cl)CCl
GI50: 63.2 µM (inactive)
//
compound: COc1ccc(/C=C2\CCCC(C(NO)c3ccc(OC)cc3)C2=NO)cc1 (stereo not given)
GI50: 29.5 µM (inactive)
//
compound: CSc1nc(NC2OCC(OC(C)=O)C(OC(C)=O)C2OC(C)=O)c(/N=C(\C)C(C)=O)c(=O)n1C (stereo not given)
GI50: > 100 µM (inactive)
//
compound: Nc1ncn(C2OC(COP(=O)(O)O)C(O)C2O)c(=O)n1 (stereo not given)
GI50: > 100 µM (inactive)
//
compound: O=S1(=O)C(c2ccccc2)C(N2CCCCC2)C1C1CC2c3ccccc3C1c1ccccc12 (stereo not given)
GI50: 7.98 µM (inactive)
//
compound: N[C@H](C(=O)O)[C@@H]1CC(Br)=NO1
GI50: > 100 µM (inactive)
//
compound: Clc1cccc(C2ON=C(c3ccccc3)N2C23CC4CC(CC(C4)C2)C3)c1Cl (stereo not given)
GI50: > 10 µM (inactive)
//
compound: C[C@H](OCc1ccccc1)C(=O)N1CCS(=O)(=O)N2CCC[C@H]2C1=O
GI50: > 100 µM (inactive)
//
compound: Fc1ccc2c3c([nH]c2c1)CCN(Cc1ccccc1)C3
GI50: 24.6 µM (inactive)
//
compound: O=C(Nc1ccc(Nc2ccc3c(c2)C(=O)c2ccccc2C3=O)c2c1C(=O)c1ccccc1C2=O)c1ccccc1
GI50: > 100 µM (inactive)
//
compound: COc1ccc(OC)c2c1C(=O)C(Cl)=C(N1CCN(CCOCCO)CC1)C2=O
GI50: 17.9 µM (inactive)
//
compound: Cc1ccc(C(=O)Nc2ccc(S(=O)(=O)O)c3cc(S(=O)(=O)O)cc(S(=O)(=O)O)c23)cc1NC(=O)c1cccc(NC(=O)Nc2cccc(C(=O)Nc3cc(C(=O)Nc4ccc(S(=O)(=O)O)c5cc(S(=O)(=O)O)cc(S(=O)(=O)O)c45)ccc3C)c2)c1 [SURAMIN]
GI50: 79.3 µM (inactive)

---

System: OVCAR-4
assay-remarks: NCI tumour cell line growth inhibition, 48 h
Active and inactive are the calls of the source. Cut-off read from the data, not from the text of the source: active = GI50 up to about 1.1 µM and inactive = higher.
Labels: 1.0 = active, 0.0 = inactive

compound: C/C1=C\[C@@H](C)C[C@@H](C)OC(=O)[C@@H](C)NC(=O)[C@H](Cc2ccc(O)c(Br)c2)N(C)C(=O)CNC(=O)[C@H](C)C1
label-value: 1.0
//
compound: COc1cccc(-c2cc(=O)c3cc(C)c(C)c(C(=O)O)c3o2)c1
label-value: 0.0
//
compound: O=C1CCCC1C(=O)Nc1ccc2ccccc2c1 (stereo unspecified)
label-value: 0.0
//
compound: O=C1Nc2ccccc2/C1=C\c1c(Cl)nc2n1CCS2
label-value: 0.0
//
compound: CCOC(=O)c1sc2c(c1OC(=O)c1ccco1)c(=O)n(-c1ccccc1)c(=S)n2-c1ccccc1
label-value: 0.0
//
compound: N#C/C(=C\c1ccc(C(O)P(=O)(O)O)cc1)C(N)=O (stereo unspecified)
label-value: 0.0
//
compound: O=C(/C=C(\O)C(=O)O)/C=C(\O)c1ccccc1Cl
label-value: 0.0
//
compound: O=C(CC1SC(Nc2ccccc2Cl)=NC1=O)Nc1ccc(Cl)cc1Cl (stereo unspecified)
label-value: 0.0
//
compound: Cc1cc(Cl)ccc1Nc1nc2c(s1)C(=O)c1ccccc1C2=O
label-value: 0.0
//
compound: [O-]c1c[n+](-c2ccccc2)no1
label-value: 0.0
//
compound: CC/C(CC(=O)CCC(=O)Nc1ccc(C)c(C)c1)=N\NC(=O)C(N)=O
label-value: 0.0

---

Test system: OVCAR-8
assay-remarks: NCI tumour cell line growth inhibition, 48 h
Calls of active or inactive are those of the source. Rule as the data show it: active = GI50 up to about 1.1 µM and inactive = higher.

compound: Cc1c2ccccc2c(/C=N/NC(=O)CSCC(=O)N/N=C/c2c3ccccc3c(C)c3ccccc23)c2ccccc12
GI50: 16.2 µM (inactive)
//
compound: Cc1ccc(CC[PH](=O)CCc2ccc(C)nc2)cn1
GI50: > 100 µM (inactive)
//
compound: COc1cccc([C@@]2(O)c3c(ccc(O)c3OC)[C@H]2OC)c1OC
GI50: 38.5 µM (inactive)
//
compound: Cc1cc2nc3c(C#N)c(C)c(CCCl)c(Cl)n3c2cc1C
GI50: 2.63 µM (inactive)
//
compound: CCc1cc2c(oc3c4ccccc4ccc23)c(=O)[nH]1
GI50: > 10 µM (inactive)
//
compound: CN1CNc2nc(N)n(C)c(=O)c2C1
GI50: > 10 µM (inactive)
//
compound: CC1=CC(=O)C[C@]2(C)[C@@H](O)CC(C(C)CO)C[C@@H]12 (stereo not given in full)
GI50: > 100 µM (inactive)
//
compound: COP(=O)(OC)/C(=N\Nc1ccc([N+](=O)[O-])cc1)NCc1ccccc1
GI50: 30.5 µM (inactive)
//
compound: Cc1cc(C)nc(SCC(=O)OC2CC(C)CCC2C(C)C)n1 (stereo not given)
GI50: 38.3 µM (inactive)
//
compound: COC(=O)C1SC(SC)=NC12c1ccccc1Nc1ccccc12 (stereo not given)
GI50: 33.3 µM (inactive)
//
compound: FC(F)(F)c1ccc(/N=C/C=C(/Nc2ccc(C(F)(F)F)cc2)c2ccc(Cl)cc2)cc1
GI50: 15.6 µM (inactive)
//
compound: CCc1cc2c(Nc3ccccc3)c3c(nc2s1)CCCC3
GI50: > 100 µM (inactive)
//
compound: CC(C)Oc1cc2c(cc1O)CC[C@@H]1[C@@H]2CC[C@]2(C)[C@@H](O)CC[C@@H]12
GI50: 8.75 µM (inactive)
//
compound: COc1cc(/C=C2\N=C(c3ccccc3)N(c3nc4ccccc4s3)C2=O)cc(OC)c1OC
GI50: 31 µM (inactive)
//
compound: O=C1CC(=O)NC(NN2C(=O)CSC2c2ccc(Cl)c(Cl)c2)=N1 (stereo not given)
GI50: > 100 µM (inactive)
//
compound: COc1cccc(C2c3cc4c(cc3OC(Nc3ccccc3)C2C)OCO4)c1O (stereo not given)
GI50: 12.9 µM (inactive)
//
compound: COC(=O)C1=C(c2ccc(OC)c(OC)c2)OC(c2ccc(OC)c(OC)c2)C1 (stereo not given)
GI50: 29.5 µM (inactive)
//
compound: C1=CC2CCC1CN2CCC1CNc2ccccc21 (stereo not given)
GI50: > 100 µM (inactive)
//
compound: COc1cc(C2[C@H]3C(=O)N(c4ccc(Cc5ccc(N6C(=O)[C@@H]7ON(c8ccccc8)C(c8cc(OC)c(OC)c(OC)c8)[C@@H]7C6=O)cc5)cc4)C(=O)[C@H]3ON2c2ccccc2)cc(OC)c1OC (stereo not given in full)
GI50: > 100 µM (inactive)
//
compound: Cc1ccccc1C(=O)Oc1ccc(Oc2ccccc2)cc1
GI50: > 100 µM (inactive)

---

Test system: Malme-3M
assay-remarks: NCI tumour cell line growth inhibition, 48 h
The source made the active and inactive calls. No stated cut-off is given here; in the data, active = GI50 up to about 1.1 µM and inactive = higher.
property: GI50

molecule: Cc1ccc(OCC2OC(n3cnc4c(Cl)nc(Nc5cc(Cl)cc(Cl)c5)nc43)CC2Oc2ccc(C)cc2)cc1 (stereo not given)
property: GI50
assay-result: > 100 µM (inactive)

molecule: Cc1ccc2ccccc2c1NC1=NCCO1
property: GI50
assay-result: > 100 µM (inactive)

molecule: Cc1nn(C(=O)c2ccncc2)c2c1C(c1ccc(Cl)cc1)SC(=N)N2 (stereo not given)
property: GI50
assay-result: > 10 µM (inactive)

molecule: O=C1CC(Cl)c2c(Cl)sc(Cl)c21 (stereo not given)
property: GI50
assay-result: 1.42 µM (inactive)

molecule: C=CCN1C(=O)/C(=C/c2ccccc2)N=C1SC1OC(COC(C)=O)C(OC(C)=O)C(OC(C)=O)C1OC(C)=O (stereo not given)
property: GI50
assay-result: 19.5 µM (inactive)

molecule: OC1OC(c2ccc[nH]2)C(F)(F)C(F)(F)C1(F)F (stereo not given)
property: GI50
assay-result: > 100 µM (inactive)

molecule: C=C[C@H]1CN2CC[C@H]1C[C@@H]2[C@@H](O)c1ccnc2ccccc12
property: GI50
assay-result: > 100 µM (inactive)

molecule: CC1(C)OCC(C(O)C2OC(C)(C)OC2C=O)O1 (stereo not given)
property: GI50
assay-result: > 100 µM (inactive)

molecule: O=[N+]([O-])C(C(Cl)=C(Cl)Cl)=C(N1CCOCC1)N1CCOCC1
property: GI50
assay-result: 57.3 µM (inactive)

molecule: CS(=O)(=O)OCCn1c(=O)n(CCOS(C)(=O)=O)c(=O)n(CCOS(C)(=O)=O)c1=O
property: GI50
assay-result: > 100 µM (inactive)

molecule: Cc1cc(N(CCC#N)CCC#N)ccc1C(=N/NC(=O)c1cc(Cl)ccc1O)/N=N/c1cccc(Cl)c1
property: GI50
assay-result: 14.2 µM (inactive)

molecule: Cc1ccc(NC(=O)CC(=O)n2nc(-c3ccccc3)c(/N=N\c3ccccc3[N+](=O)[O-])c2-c2ccccc2)cc1
property: GI50
assay-result: 86.1 µM (inactive)

molecule: C=C(CC)C(=O)c1ccc(OCC(=O)O)c(Cl)c1Cl
property: GI50
assay-result: 16.9 µM (inactive)

molecule: COc1ccc(-c2cc(=O)c3c(O)c(OC)c(O)c(OC)c3o2)cc1OC
property: GI50
assay-result: > 100 µM (inactive)

molecule: Cc1c(N2CCN(C)CC2)nc2ccc(Cl)cc2c1-c1ccccc1
property: GI50
assay-result: 16.9 µM (inactive)

molecule: CN1N=C(Nc2ccccc2)Sc2c1cnn(-c1ccccc1)c2=O
property: GI50
assay-result: > 100 µM (inactive)

molecule: Cc1nc(C(N)=O)c(N)n1CCN1CCN(C(=O)CCCCCCCCCCNC2NC=Nc3[nH]cnc32)CC1 (stereo not given)
property: GI50
assay-result: 31.2 µM (inactive)

molecule: C[C@H]1CC[C@H](NC(=O)N(CCCl)N=O)CC1
property: GI50
assay-result: 47.9 µM (inactive)

molecule: Nc1c(C(=O)NC23CC4CC(CC(C4)C2)C3)[n+]([O-])c2ccccc2[n+]1[O-]
property: GI50
assay-result: > 100 µM (inactive)

molecule: CC1OC(NCCNCCNC2OC(C)C(O)C(O)C2O)C(O)C(O)C1O (stereo not given)
property: GI50
assay-result: > 100 µM (inactive)
